Below, each entry is listed with its recorded apparent KD of MS2 coat protein.
- System: MS2 coat protein
- METHOD: apparent KD of MS2 coat protein; higher = weaker reporter binding
- TEST CONTEXT: Eterna round: R107; input ligand: tryptophan 2.4 mM
Please respond with the number in nM and leave the unit unwritten.

Below, each entry is followed by its recorded apparent KD of MS2 coat protein result.
CCGUUUUAUGGCGACAUAGGGCGGACUGAAGGAGCGGUAUAAAAGCCAGGUAGGUCGCAGAGAUCCACAUGAGGAUCACCCAUGU [!0.aA]    51
GCUAGUGGCAGAAGGAGCGACAUUUAUAGUGGUCGAUACAUGAGGAUCACCCAUGUACUAUGUCAGGUAGGUCGCUGCCACUAGC [EAB NP+V+V2 #5]    32.5

Shifting focus to the sequence that follows.
Asked: Quick one: apparent KD of MS2 coat protein of GGGCAAGAGGGAAGGAGCGUUAGCUGAGUCACAUGAGGAUCACCCAUGUCGCACAUAGUAUGACAGGUAGGUCGCCCUCUACCCU [SS-ArgB14] ?
Given back: 16.8

---

- System: K4 kissing-loop RNA reporter
- METHOD: apparent KD of K4 kissing-loop reporter; higher = weaker reporter binding
- TEST CONTEXT: Eterna round: R107; input ligand: FMN 200 uM
ENDPOINT LABEL: apparent KD of K4 kissing-loop reporter (nM)
Your answer should be a plain number; it is taken to be in nM.

Here are 5 sequences together with their reported answers.
AAGUACACGAUAGUGUACACCUAGUGAUGUUAGGAUAUGCAGAUAUGCAGAAGGAACGAGUCAUCUGACAAUAGUCGGAUGACAA [FmnAX 8 #OpenEnded #K4Early]    564
AUAGGCUAGCGAAACGCUAGCCUAACAGAUACCAGUCGCGAAAGCGACCCUUGGCAGCUGCUGAGUGAUGUUCAGGUGAAUGAAU    442
AAGUGUGUGGCGGCCGCCACUAGAAUCCAGUGAUGUUGGAGUAAUCAAAUAAAUGAUAAUCAACAUAGGACCGGGCCAUAUAGAA [Same State - Tryptophan B (Freestyle 3)]    345
UAAGAUUCUGUCUCAUUGAGACAGAAUCAACGAGGACCGGUACGGCCGCCACUCGGGUCCUAGAGUGAUGUUCUAAUAAUAUAAU [AK1 SS Tryptophan A]    283
GACAUAUUCCAGGAUACCAGUGAUCCGCCGCAGCCGAAGACUAGUGAUGUUAGUUUCUGUCACCCUUGGCAGCCUCGAGUCUAAU [theeternabot_sameState_KL_Theo_B_15]    420

# input for lookup
Asked: Would you kindly share the measured apparent KD of K4 kissing-loop reporter for CACCAUGAAUUCUCUAGGAGUGAUGUUUUUCGAGGACCGGUACGGCCGCCACUCGGACGAGGACCGUGGGAGCGGCGAAGCGGCU [?oegmullin] ?
Given back: 99.2

---

- Tested on: K4 kissing-loop RNA reporter;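 further: bound reporter read as fluorescence of individual clusters on recovered sequencing chips by microscopy, with normalized cluster intensities fitted with a binding model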
- METHOD: apparent KD of K4 kissing-loop reporter; higher = weaker reporter binding
- TEST CONTEXT: Eterna round: R107; input ligand: tryptophan 2.4 mM
Use 200 nM as the dividing line for apparent KD of K4 kissing-loop reporter, with the line itself on the label 1 side and lower values as label 0.

Worked cases, answers included:
UACUAUAUUCUGUCGUUUAUAUUAUUUUGUCAGGAUAUCGUUUAUUCGAGAAGGGACACUAUCUAGUGAUGUUAGAUUUUUCUUU [JR_Nu_ExcFMNA_Sub029]    label 0
AGCAUUAUCAGAAGGAGCGUGUAUAAUUCAAGAGAAUUGUUUUCGAGUGAUGUUCGUAAUACACAGGUAGGUCGCUGAUAUAGCA [JR_ExcArginiB_Sub001]    label 1
CGGAUGUAGUGAUGUUAUAUUAGAUGUAGACGAGGACCGGUACGGCCGCCACUCGUGACGGCUGCUAGCGCGUUGCGAGGUGUGC [ExTryptoA.Cm]    label 1
AAGUUUUAUAAACUCAUGGUUUCGACAGAUACCAGCUUCGAGAGGAGCCCUUGGCAGCUGCAUGAGUGAUGUUCAUGUACGAAGA [KL-XTheoA8]    label 1
GUUAUGGACCUUUUGAUCGUUCGUAGCGAUACCAGACAAUGGGCAGUCCCUUGGCAGCGCUAAUUGAGUGAUGUUCAAACGUGCA [theeternabot_exclusion_KL_Theo_A_46]    label 1

Asked: Is reported apparent KD of K4 kissing-loop reporter greater than or equal to 200 nM here: UCCUAGGACUUCAGGCGAAAGCCCUGCGAAGGAGCGUGCGAAAGCACAGGUAGGUCGCGCAGUGAUGUUGCACCUAGGUAAUAAA [#SwitchBubble 20 #K4Late]
Given back: label 0

Asked: Param item: AAUAAAAUCACGGCCGCCACUGAUGUUAAUAUUAGCAGUGAUGUUGCUAUGUCGUUUUUCUUUAACAGGACCGGGUGAAUAUUUA [#22 K4 Tryptophan B Exclusion]
Given back: label 0

Asked: Same lookup for AAGUGUGUGGCGGCCGCCACUAGGAUCCAGUGAUGUUGGAGAUAUCUCGUAAGAGAUAUCCGCCAUAGGACCGGGCCAUAUAGAA [Same State - Tryptophan B (Freestyle 16)] , please.
Given back: label 0

Asked: Can you handle GGAUGGUAGGCGGCCGCCACUAAAACUGAACACAUACAAGCCAGUGAUGUUGGUAUGAUGAAGUAUAGGACCGGGCCUAGAUAGA [Exclusion - Tryptophan B (Freestyle 3)] next?
Given back: label 1

Asked: Query UAUAUAGUGACGGCCGCCACUAUAUUAAUGUUUUUGUUAGAGUGAUGUUUUGUUUUUUAAUUUUAUAGGACCGGGUUAUAUGUUA [xnxmullin] next
Given back: label 0

Asked: And the next one, GUGGUGGUGGCGGCCGCCACUGAAGAUAAUGAGUGAUGUUCAAGUGAUGUUAAUAAGAACAGUAUCAGGACCGGGCCACCACCAC [Default title] ?
Given back: label 0

Asked: Also GGGAUGUAGUGAUGUUAUAUUAGAUGUAGACGAGGACCGGUACGGCCGCCACUCGUGAUGGCUGCUAGCACGUUUCGAUGUUUGC [ExTryptoA.Cr] ?
Given back: label 1
